- TGT: Testis-specific serine/threonine-protein kinase 1 (Homo sapiens, UniProt Q9BXA7)
- Sequence (Q9BXA7 whole entry): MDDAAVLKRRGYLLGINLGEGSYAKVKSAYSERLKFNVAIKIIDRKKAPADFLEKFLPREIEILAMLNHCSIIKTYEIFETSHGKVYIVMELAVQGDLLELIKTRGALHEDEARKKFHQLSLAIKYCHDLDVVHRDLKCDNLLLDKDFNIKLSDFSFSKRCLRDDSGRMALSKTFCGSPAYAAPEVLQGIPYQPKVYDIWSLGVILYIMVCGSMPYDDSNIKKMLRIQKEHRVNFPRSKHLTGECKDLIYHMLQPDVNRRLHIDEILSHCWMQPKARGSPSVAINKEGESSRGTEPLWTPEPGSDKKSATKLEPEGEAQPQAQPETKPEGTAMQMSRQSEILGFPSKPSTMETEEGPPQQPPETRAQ
pKd: −log10 of the molar value.
RECORDED_ENDPOINT: pKd

COCC(=O)NC/C=C/c1ccc2ncnc(Nc3ccc(Oc4ccc(C)nc4)c(C)c3)c2c1 : < 5.00
Nc1nc(Nc2ccc(S(N)(=O)=O)cc2)nn1C(=O)c1c(F)cccc1F : < 5.00

Consider now this further compound.
**Query** Given the compound "NC(=O)c1ccc(-c2nc(-c3ccc4c(c3)OCO4)c(-c3ccccn3)[nH]2)cc1" , what is its reported pKd?
**Result** < 5.00
